Listed here: items and their measured viability at 30 µM.
# ASSAY REMARKS: Toxicity against mouse RAW264.7 cells assessed as cell viability at 30 uM by Cell titer 96 squeous one solution cell proliferation assay untreated control
# Format: cell-based
# ASSAY CONTEXT: read-out: Activity

>  <COMPOUND>
O=C1CCC(N2C(=O)c3ccncc3C2=O)C(=O)N1 (stereo unspecified)

>  <UNITS TEXT>
%

>  <viability at 30 µM>
96

$$$$
>  <COMPOUND>
N=C1c2ccccc2C(=O)N1C1CCC(=O)NC1=O (stereo unspecified)

>  <UNITS TEXT>
%

>  <viability at 30 µM>
84

$$$$
>  <COMPOUND>
Nc1cccc2c1CN(C1CCC(=O)NC1=O)C2=O (stereo unspecified) [LENALIDOMIDE]

>  <UNITS TEXT>
%

>  <viability at 30 µM>
106

$$$$
>  <COMPOUND>
O=C1CCC(N2Cc3ccccc3C2=O)C(=O)N1CN1C(=S)c2ccccc2C1=S (stereo unspecified)

>  <UNITS TEXT>
%

>  <viability at 30 µM>
82

$$$$
>  <COMPOUND>
O=C1CCC(N2Cc3ccccc3C2=O)C(=O)N1CN1C(=S)CCCC1=S (stereo unspecified)

>  <UNITS TEXT>
%

>  <viability at 30 µM>
94

$$$$
>  <COMPOUND>
O=C1CCC(N2C(=O)c3cccnc3C2=O)C(=O)N1 (stereo unspecified)

>  <UNITS TEXT>
%

>  <viability at 30 µM>
95

$$$$

----------
# ASSAY REMARKS: Toxicity against mouse RAW264.7 cells assessed as cell viability at 30 uM by Cell titer 96 squeous one solution cell proliferation assay untreated control
# Assay type: cell-based
# ASSAY CONTEXT: read-out: Activity

>  <MOLECULE>
O=C1CCC(N2Cc3ccccc3C2=O)C(=O)N1CN1C(=O)c2ccccc2C1=O (stereo unspecified)

>  <viability at 30 µM, %>
98

$$$$
>  <MOLECULE>
N=C1N/C(=N\C2CCC(=O)NC2=O)c2ccccc21 (stereo unspecified)

>  <viability at 30 µM, %>
116

$$$$
>  <MOLECULE>
O=C1CCC(N2Cc3ccccc3C2=O)C(=O)N1CSC(=S)N1CCCCC1 (stereo unspecified)

>  <viability at 30 µM, %>
112

$$$$
>  <MOLECULE>
O=C1CCC(N2S(=O)(=O)c3ccccc3S2(=O)=O)C(=O)N1 (stereo unspecified)

>  <viability at 30 µM, %>
109

$$$$
>  <MOLECULE>
O=C1CCC(N2Cc3ccccc3C2=O)C(=O)N1CSC(=S)NC1CCCCC1 (stereo unspecified)

>  <viability at 30 µM, %>
103

$$$$
>  <MOLECULE>
O=C1CCCC(=O)N1CN1C(=O)CCC(N2Cc3ccccc3C2=O)C1=O (stereo unspecified)

>  <viability at 30 µM, %>
102

$$$$
